Molecular target: T1, human FLT3 (hFLT3) (human, UniProt P36888 27-543)
T1 construct: also called huFlt3; Fms-Like Tyrosine Kinase 3
T1 sequence (looked up): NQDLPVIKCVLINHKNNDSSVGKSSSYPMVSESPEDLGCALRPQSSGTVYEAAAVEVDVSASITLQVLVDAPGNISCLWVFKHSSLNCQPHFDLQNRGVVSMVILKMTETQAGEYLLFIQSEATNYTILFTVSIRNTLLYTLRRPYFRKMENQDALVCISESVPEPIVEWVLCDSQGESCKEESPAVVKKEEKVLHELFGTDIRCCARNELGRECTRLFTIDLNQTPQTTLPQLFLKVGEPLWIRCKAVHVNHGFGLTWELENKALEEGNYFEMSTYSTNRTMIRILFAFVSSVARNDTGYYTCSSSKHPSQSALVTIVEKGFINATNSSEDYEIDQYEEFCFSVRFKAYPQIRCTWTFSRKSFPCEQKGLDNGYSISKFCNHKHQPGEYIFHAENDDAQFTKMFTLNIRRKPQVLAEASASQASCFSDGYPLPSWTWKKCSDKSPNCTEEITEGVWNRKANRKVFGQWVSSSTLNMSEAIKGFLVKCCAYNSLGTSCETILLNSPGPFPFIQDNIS
Assay: SPR (Biacore T200), 37 C; IgG captured on anti-human Fc, hFLT3 as analyte
value-type: koff (s⁻¹)
Lab book: enter the figure in s⁻¹, no units written.

Incoming: Recorded koff for P14G2 (IgG format) (antibody, V domains shown, IgG format, captured by anti-human Fc) VH: EVQLLESGGGLVQPGGSLRLSCAASGFTFSNYVMNWVRQAPGKGLEWVSAISGSGATTYYADSVKGRFTISRDNSKNTLYLQMNSLRAEDTAVYYCVSGLWAGGIWGQGTLVTVSS VL: DIQMTQSPSSLSASVGDRVTITCRASQSISSYLNWYQQKPGKAPKLLIYDASDLQRGVPSRFSGSGSGTDFTLTISSLQPEDFATYYCQQSYNTPWTFGQGTKVEIK , please?
Outgoing: 0.0011

Incoming: Request the reported koff associated with P7H3 (IgG format) (antibody, V domains shown, IgG format, captured by anti-human Fc) VH: EVQLLESGGGLVQPGGSLRLSCAASGFTFSSYAMHWVRQAPGKGLEWVSAISGSGGSTYYADSVKGRFTISRDNSKNTLYLQMNSLRAEDTAVYYCARGTRWWWGDAFDHWGQGTLVTVSS VL: QSVLTQPPSVSVAPGKTARITCGGNNIGSKSVHWYQQKPGQAPVLVIYYDSDRPSGIPERFSGSNSGNTATLTISRVEAGDEADYYCQVWDSSTAWVFGGGTKLTVL
Outgoing: 0.0018

Incoming: May I ask what koff has been recorded for P8B6 (IgG format) (antibody, V domains shown, IgG format, captured by anti-human Fc) VH: QVQLVQSGAEVKKPGSSVKVSCKASGGTFSSYAVSWVRQAPGQGLEWMGGIIPIFGIANYAQKFQGRVTITADTSTSTAYMELSSLRSEDTAVYYCAIEGIGGDLRYDGYDAWGQGTLVTVSS VL: EIVLTQSPGTLSLSPGERATLSCRASQSVSHSYLAWYQQKPGQAPRLLIYGASFRAAGIPDRFSGSGSGTDFTLTISRLEPEDFAVYYCQQYGSDPYTFGQGTKVEIK ?
Outgoing: 0.00023
